// provenance: paper PMC6268785

test system: Caki (human kidney cancer); experiment: SRB cytotoxicity assay, Caki; type: cell-based; conditions: Homo sapiens, mean ± standard error, read-out: IC50 against Caki

- compound: "CCCCCCCCCCCCCCCc1cccc(O)c1C(=O)O [AA, Anacardic acid, reference compound]"
  IC50: "> 100 µM"
- compound: "Nc1ccccc1C(=O)O [A, Anthranilic acid, reference compound]"
  IC50: "> 100 µM"

* * *

tested on: HCT-116 (human colon cancer); experiment: SRB cytotoxicity assay, HCT-116; format: cell-based; details: Homo sapiens, HCT-116, mean ± standard error, read-out: IC50 against HCT-116
pIC50: −log10 of the molar value.

- molecule: "CCCCCCCCCCCCCCCc1cccc(O)c1C(=O)O [AA, Anacardic acid, reference compound]"
  tgt: "HCT-116 (human colon cancer)"
  result comparator: "="
  pIC50: 4.02
- molecule: "Nc1ccccc1C(=O)O [A, Anthranilic acid, reference compound]"
  tgt: "HCT-116 (human colon cancer)"
  result comparator: "<"
  pIC50: 4.00
